These measurements were taken from PubChem BioAssay (Tox21).

Target: Estrogen receptor beta (Homo sapiens) (UniProt Q92731)
Sequence (Q92731 whole entry, looked up): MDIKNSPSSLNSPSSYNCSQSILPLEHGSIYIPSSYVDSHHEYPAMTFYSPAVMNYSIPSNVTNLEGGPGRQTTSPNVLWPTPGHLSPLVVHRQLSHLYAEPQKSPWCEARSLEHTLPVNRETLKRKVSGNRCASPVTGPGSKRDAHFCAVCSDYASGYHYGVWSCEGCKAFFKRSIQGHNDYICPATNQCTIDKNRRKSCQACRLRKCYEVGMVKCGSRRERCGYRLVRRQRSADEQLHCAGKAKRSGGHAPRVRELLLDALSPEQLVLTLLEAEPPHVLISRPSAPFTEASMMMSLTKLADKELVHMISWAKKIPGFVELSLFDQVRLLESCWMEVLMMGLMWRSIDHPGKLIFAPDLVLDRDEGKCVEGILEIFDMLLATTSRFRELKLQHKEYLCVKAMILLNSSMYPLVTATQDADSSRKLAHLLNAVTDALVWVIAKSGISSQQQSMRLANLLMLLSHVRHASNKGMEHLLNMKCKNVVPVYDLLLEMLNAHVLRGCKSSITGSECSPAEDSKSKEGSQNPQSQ
Test: qHTS assay to identify small molecule antagonists of the estrogen receptor beta (ER-beta) signaling pathway (AID 1259378); note: % is set by controls: 0 for no effect and ±100 for the full control effect
Settings: ER-beta-UAS-bla HEK293T, beta-lactamase FRET ratio, 16 h; series mostly up to 92.4 µM
Records with an inconclusive call do not appear. Active and inactive are the calls of the source. Calls come from the whole dose curve; as a rule, active = well fitted inhibition curve with a large enough effect in the signal ratio in the repeat runs (not every such curve was filed as active); inconclusive = weak or mixed curves, or effect the other way; inactive = no such curve, though single readings can be large or run the other way; the % refers to the signal ratio.
I would appreciate it if you answered using one of these outcomes: TRUE for active, FALSE for inactive

NC(=O)c1ccc([N+](=O)[O-])cc1Cl ... FALSE
OCCCc1ccccc1 ... FALSE
NC(=O)N/N=C/c1ccc([N+](=O)[O-])o1 ... FALSE
COc1ccc(O)cc1 ... FALSE

Field: outcome | Entry: C1CNCCN1
FALSE

Moving on to the next compound: COc1ccccc1O
FALSE

Also COC(=O)C1CCC(C(=O)OC)CC1 (centres undefined) , if possible.
FALSE

Also, CCCCCCCC(=O)OCC(O)CO (centres undefined) please.
FALSE

Now consider CCOCCO and answer again.
FALSE

Now give it for CCOC(=O)C(C)(C)Oc1ccc(Cl)cc1 too.
FALSE

Ok, now CC(=O)Oc1ccccc1C(=O)O
FALSE

----------
Assay: qHTS RealTime-Glo MT Cell Viability Assay in HEK293 cells - 24 hour (AID 1224886); note: nearly all actives have a fitted effect of over 50% in size
Details: RealTime-Glo luminescence; series mostly up to 76.8 µM
Records with an inconclusive call do not appear. Calls of active or inactive are those of the source. Calls follow the shape of the dose curve; as a rule, active = well fitted cell-killing curve with a large enough effect in the repeat runs; inconclusive = weak or mixed curves, or effect the other way; inactive = flat fitted curve, though single readings scatter.
Returns: one label drawn from active, inactive

O=c1c(-c2ccc(O)cc2)coc2cc(O)cc(O)c12 ... active

Which outcome was assigned to COc1cc2c(c(OC)c1OC)-c1ccc(OC)c(=O)cc1[C@@H](NC(C)=O)CC2 in this test?
inactive

Entry CN/C(=C\[N+](=O)[O-])NCCSCc1ccc(CN(C)C)o1 please
inactive

# repeat for COc1ccc(O)cc1
inactive

Please do the same for CN(C)Cc1cc(CN(C)C)c(O)c(CN(C)C)c1 as well.
inactive

Same lookup for C1CNCCN1 , please.
inactive

What do we get for Cc1ccc(O)c(-n2nc3ccccc3n2)c1 ?
inactive

----------
Target: Glucocorticoid receptor (Homo sapiens)
Test: qHTS assay to identify small molecule antagonists of the glucocorticoid receptor (GR) signaling pathway (AID 720692)
Conditions: GR-bla HeLa, beta-lactamase FRET ratio, dexamethasone-stimulated, 18 h; series mostly up to 58.5 µM
Results filed as inconclusive are left out. The source made the active and inactive calls. Calls come from the whole dose curve; as a rule, active = well fitted inhibition curve with a large enough effect in the signal ratio in the repeat runs (not every such curve was filed as active); inconclusive = weak or mixed curves, or effect the other way; inactive = no such curve, though single readings can be large or run the other way; the % refers to the signal ratio.
One label from this list, please: class 1 (active), class 0 (inactive)

Worked examples follow.
Cc1cccc(Nc2cc(Cl)nc(SCC(=O)O)n2)c1C ... class 0
OCCCc1ccccc1 ... class 0
CC(=O)Oc1ccccc1C(=O)O ... class 0
C[C@]12CC[C@@H]3c4ccc(O)cc4C[C@@H](CCCCCCCCCS(=O)CCCC(F)(F)C(F)(F)F)[C@H]3[C@@H]1CC[C@@H]2O (stereo partly specified) ... class 1
Cc1ccc(O)c(-n2nc3ccccc3n2)c1 ... class 0

Continue with the next compound.
Field: outcome | Entry: Cc1cnc(NC(=O)C2=C(O)c3ccccc3S(=O)(=O)N2C)s1
class 0

----------
Assay: qHTS assay to test for compound auto fluorescence at 535 nm (green) in HEK293 cell free culture (AID 720682); note: % is set by controls: 0 for no effect and ±100 for the full control effect
Settings: cell-free medium, green autofluorescence 485/535 nm; series mostly up to 91.3 µM
Active and inactive are the calls of the source. Calls come from the whole dose curve; as a rule, active = well fitted curve in the direction sought with a large enough effect in the repeat runs; inconclusive = weak or mixed curves; inactive = flat fitted curve, though single readings scatter.
experimental endpoint: outcome

C/C=C/c1ccc(O)c(OC)c1 ... inactive
CCCCCCCCOc1ccc(C(=O)c2ccccc2)c(O)c1 ... inactive
C#C[C@]1(O)CC[C@H]2[C@@H]3CCc4cc(O)ccc4[C@H]3CC[C@@]21C ... inactive
CCCCNC(=O)NS(=O)(=O)c1ccc(N)cc1 ... inactive
NC(=O)c1ccc([N+](=O)[O-])cc1Cl ... inactive
CCCCCCCC(=O)OCC(O)CO (stereo not drawn) ... inactive
Cc1cccc(C)c1O ... inactive
Nc1cccc(N)c1 ... inactive

Lab note: next compound to report on.
Consider the compound shown here: COC1=CC(=O)C[C@@H](C)[C@]12Oc1c(Cl)c(OC)cc(OC)c1C2=O What is its recorded outcome?
inactive
